# measured_target: T1, UHRF1 SRA domain (mammalian? (species ), UniProt Q96T88-2 427-630)
# T1 sequence: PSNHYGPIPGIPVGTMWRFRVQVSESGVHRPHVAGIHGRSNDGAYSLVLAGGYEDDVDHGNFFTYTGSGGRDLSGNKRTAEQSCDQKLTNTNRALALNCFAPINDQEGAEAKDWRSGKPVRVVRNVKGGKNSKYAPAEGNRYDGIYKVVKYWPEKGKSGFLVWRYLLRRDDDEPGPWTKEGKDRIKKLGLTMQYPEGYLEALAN
# protocol: fluorescence polarization; 20 C; ITC: 40 mM Tris-HCl pH 7.5, 50 mM NaCl, 2 mM b-mercaptoethanol, 25 C; FP: 20 mM Tris-HCl pH 7.5, 50 mM NaCl, 1 mM DTT, 20 C; EMSA: 25 mM Tris-HCl pH 7.5, 5% glycerol, 60 mM NaCl, 10 mM MgCl2, 0.4 mg/mL BSA, 2 mM DTT
# details: protein: recombinant; tags: His6-SUMO, cleaved with Ulp1; label: 5'-6FAM
endpoint_label: pKd
Would you please state pKd, meaning minus log10 of the concentration in mol/L, as a bare number?

What measured pKd goes with hemi-5mCG 12-mer (dsDNA, X = 5mC, one strand) DNA 1: CCATGCGCTGAC DNA 2: GTCAGCGCATGG ?
6.46
